Reference source: BigSolDB 2.1

# Experimental context: in ethanol, 288.15 K
Measurement name: solubility (mole fraction)
Keep it simple and answer with nothing but the number.

Recorded solubility (mole fraction) for CC(=O)c1c(C)c([N+](=O)[O-])c(C(C)(C)C)c([N+](=O)[O-])c1C , please?
0.00304

* * *

# Experimental context: in ethanol, 318.15 K
Measurement name: solubility (mole fraction)
Output spec: single numeric token, no unit.

Given the compound CC(=O)c1c(C)c([N+](=O)[O-])c(C(C)(C)C)c([N+](=O)[O-])c1C , what is its reported solubility (mole fraction)?
0.00869

* * *

# Experimental context: in methanol, 298.15 K
Measurement name: solubility (mole fraction)
Returns: the value as a bare number; no unit string appended.

Need solubility (mole fraction), item CC(=O)c1c(C)c([N+](=O)[O-])c(C(C)(C)C)c([N+](=O)[O-])c1C
0.00272
